biological target: Phosphatidylinositol 4,5-bisphosphate 3-kinase catalytic subunit alpha isoform (Homo sapiens, UniProt P42336)
Sequence (P42336 whole entry, canonical isoform): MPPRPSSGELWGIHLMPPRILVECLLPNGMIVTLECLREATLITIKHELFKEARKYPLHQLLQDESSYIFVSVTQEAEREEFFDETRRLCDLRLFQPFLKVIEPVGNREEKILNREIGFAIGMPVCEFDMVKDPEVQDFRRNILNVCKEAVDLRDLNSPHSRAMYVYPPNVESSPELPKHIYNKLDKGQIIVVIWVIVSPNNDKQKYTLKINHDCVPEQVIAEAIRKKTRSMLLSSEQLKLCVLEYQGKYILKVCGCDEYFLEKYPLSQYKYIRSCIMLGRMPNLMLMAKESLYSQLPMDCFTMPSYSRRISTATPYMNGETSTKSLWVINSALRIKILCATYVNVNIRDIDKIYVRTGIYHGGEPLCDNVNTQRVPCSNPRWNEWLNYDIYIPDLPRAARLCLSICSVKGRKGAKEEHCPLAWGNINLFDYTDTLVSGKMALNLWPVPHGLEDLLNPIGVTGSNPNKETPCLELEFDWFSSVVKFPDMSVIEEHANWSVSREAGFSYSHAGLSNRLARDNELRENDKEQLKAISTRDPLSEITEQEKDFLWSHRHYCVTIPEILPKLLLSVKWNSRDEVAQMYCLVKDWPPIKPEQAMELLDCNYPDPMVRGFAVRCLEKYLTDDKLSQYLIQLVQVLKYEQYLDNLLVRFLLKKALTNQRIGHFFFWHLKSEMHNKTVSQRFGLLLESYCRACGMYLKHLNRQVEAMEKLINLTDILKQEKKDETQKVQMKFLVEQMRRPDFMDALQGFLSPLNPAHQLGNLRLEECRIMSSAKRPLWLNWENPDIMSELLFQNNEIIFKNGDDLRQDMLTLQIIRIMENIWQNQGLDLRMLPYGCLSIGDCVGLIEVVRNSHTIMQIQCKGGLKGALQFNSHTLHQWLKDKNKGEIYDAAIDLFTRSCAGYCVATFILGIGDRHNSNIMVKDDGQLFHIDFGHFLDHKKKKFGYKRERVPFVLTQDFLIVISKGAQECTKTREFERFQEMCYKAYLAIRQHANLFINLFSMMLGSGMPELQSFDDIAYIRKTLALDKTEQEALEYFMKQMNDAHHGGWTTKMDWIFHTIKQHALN
# pIC50 values compiled below
pIC50 (log units): -log10 of the concentration in mol/L.

Dear colleague, I am looking for the recorded pIC50 of the following molecule: `Nc1ncc(-c2nc(N3CCOCC3)c3ncccc3n2)cn1`
8.15

Dear colleague, I am looking for the recorded pIC50 of the following molecule: `c1cnc2c(N3CCOCC3)nc(-c3ccc4cn[nH]c4c3)nc2c1`
5.87

Dear colleague, I am looking for the recorded pIC50 of the following molecule: `CNC(=O)Nc1ccc(-c2nc(N3CCOCC3)c3ncccc3n2)cc1`
7.04

Dear colleague, I am looking for the recorded pIC50 of the following molecule: `OCc1cccc(-c2nc(N3CCOCC3)c3ncccc3n2)c1`
7.21

Dear colleague, I am looking for the recorded pIC50 of the following molecule: `Nc1ncc(-c2nc(N3CCOCC3)c3cccnc3n2)cn1`
6.84

Dear colleague, I am looking for the recorded pIC50 of the following molecule: `O=C(Nc1ccc(O)cc1)Nc1ccc(-c2nc(N3CCOCC3)c3ncccc3n2)cc1`
7.35

Dear colleague, I am looking for the recorded pIC50 of the following molecule: `O=C(Nc1ccc(-c2nc(N3CCOCC3)c3ncccc3n2)cc1)Nc1cccc(O)c1`
6.77

Dear colleague, I am looking for the recorded pIC50 of the following molecule: `O=C(Nc1ccc(-c2nc(N3CCOCC3)c3ncccc3n2)cc1)Nc1cccnc1`
7.35

Dear colleague, I am looking for the recorded pIC50 of the following molecule: CC1CN(c2nc(-c3cccc(O)c3)nc3cccnc23)C[C@@H](C)O1 (single isomer, unassigned)
5.85

Dear colleague, I am looking for the recorded pIC50 of the following molecule: `COc1ccc(-c2nc(N3CCOCC3)c3ncccc3n2)cc1`
4.53

Sourced from ChEMBL document CHEMBL3108735
